Across several studies, molecules have been characterized by their Ki on Melanocortin receptor 4 (Homo sapiens); a selection follows.
Sequence (P32245 whole entry): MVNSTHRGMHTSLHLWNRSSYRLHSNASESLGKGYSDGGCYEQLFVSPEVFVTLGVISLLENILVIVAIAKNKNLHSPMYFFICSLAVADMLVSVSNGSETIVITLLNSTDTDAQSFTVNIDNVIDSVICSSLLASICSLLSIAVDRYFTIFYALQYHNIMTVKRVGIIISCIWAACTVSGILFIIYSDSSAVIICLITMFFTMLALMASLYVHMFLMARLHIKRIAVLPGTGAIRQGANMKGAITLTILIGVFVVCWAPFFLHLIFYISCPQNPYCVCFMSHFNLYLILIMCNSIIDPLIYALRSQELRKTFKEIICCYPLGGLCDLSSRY
Could you mark each record Yes if its Ki falls strictly under 600 nM, and No if it equals or exceeds it?

Observe how each entry below is paired with its result.
1. COc1ccc(CNCC2(N3CCN(C(=O)[C@H]4CN(C(C)C)C[C@@H]4c4ccc(Cl)cc4)CC3)CCCCC2)c(F)c1
Yes
2. COC(=O)N1CC[C@H](c2ccc(Cl)cc2)[C@H]1C(=O)N1CCN(c2ccc(C)cc2[C@@H](N)C(C)C)CC1
Yes
3. CC(C)(C)CC(=O)N[C@H](Cc1ccc(Cl)cc1)C(=O)N1CCN(C2(CNC(=O)Cc3ccccc3)CCCCC2)CC1
No

Would you kindly verify if Ki of CCN1CCC(C/N=C(/N)NC(=O)c2cccc(F)c2CCc2cc(Br)ccc2OC)CC1 is strictly less than 600 nM?
Yes

Would you kindly verify if Ki of CC(=O)N[C@@H](Cc1ccc(O)cc1)C(=O)N[C@H](Cc1ccccc1)C(=O)N1C[C@@H](OCc2ccc3ccccc3c2)C[C@H]1CCCN=C(N)N is strictly less than 600 nM?
Yes

Would you kindly verify if Ki of NC(=O)C[C@H](N)C(=O)N[C@H](Cc1ccccc1)C(=O)N1C[C@H](OCc2ccc3ccccc3c2)C[C@H]1CCCN=C(N)N is strictly less than 600 nM?
No

Would you kindly verify if Ki of Cc1cc(Cl)ccc1CC(C)C(=O)N1CCN(c2ccc(C(F)(F)F)cc2[C@@H](N)CC(C)C)CC1 (stereo partly drawn) is strictly less than 600 nM?
Yes

Would you kindly verify if Ki of NCCC(=O)N[C@H](Cc1ccc(Cl)cc1Cl)C(=O)N1CCN(c2ncccc2CNC(=O)Nc2ccccc2F)CC1 is strictly less than 600 nM?
No

Would you kindly verify if Ki of COc1ccc(Br)cc1CCc1c(Cl)cccc1-c1nccn1C(C)C is strictly less than 600 nM?
No

Would you kindly verify if Ki of N[C@H](Cc1ccc(F)cc1)C(=O)NCCC(Cn1cncn1)C1CCCCC1 (stereo partly drawn) is strictly less than 600 nM?
No

Would you kindly verify if Ki of Cc1ccc(N2CCN(C(=O)[C@@H]3[C@@H](c4ccc(Cl)cc4)CCN3C(=O)C(C)(C)C)CC2)c([C@@H](N)C(C)C)c1 is strictly less than 600 nM?
Yes

----------
Across several studies, compounds have been characterized by their Ki on Melanocortin receptor 4 (Homo sapiens); a selection follows.
Write the quantity with the unit trailing the number.

1) CC(C)C[C@H](NC(=O)CN)c1cc(C(F)(F)F)ccc1N1CCN(C(=O)[C@@H]2CN(C(C)C)C[C@H]2c2ccc(Cl)cc2)CC1
8.9 nM
2) CC(C)C[C@H](N)c1cc(C(F)(F)F)ccc1N1CCN(C(=O)CNc2ccccc2)CC1
3600 nM
3) COCC(C)NCc1cccnc1N1CCN(C(=O)[C@@H](Cc2ccc(Cl)cc2Cl)NC(=O)CCN)CC1 (stereo partly drawn)
87 nM
4) CC(C)C(=O)N[C@H](Cc1ccc(Cl)cc1)C(=O)N1CCN(C2(CNC(=O)Cc3ccccc3)CCCCC2)CC1
300 nM
5) CC(C)C[C@H](N)c1cc(C(F)(F)F)ccc1N1CCN(C(=O)C(C)Cc2ccc(Cl)cc2O)CC1 (stereo partly drawn)
36 nM

The recorded Ki with Melanocortin receptor 4 (Homo sapiens) for N#CCC(=O)N[C@@H](Cc1c[nH]cn1)C(=O)N[C@@H](Cc1ccccc1)C(=O)N[C@@H](CCCNC(=N)N)C(=O)N[C@@H](Cc1c[nH]c2ccccc12)C(N)=O was 110 nM

The recorded Ki with Melanocortin receptor 4 (Homo sapiens) for COc1cccc(CC(O)c2ccccc2N2CCN(C(=O)[C@@H](Cc3ccc(Cl)cc3Cl)NC(=O)CCN)CC2)c1 (stereo partly drawn) was 66 nM

The recorded Ki with Melanocortin receptor 4 (Homo sapiens) for COc1ccc(CC(C)C(=O)N2CCN(c3ccc(C(F)(F)F)cc3[C@@H](N)CC(C)C)CC2)cc1 (stereo partly drawn) was 120 nM

The recorded Ki with Melanocortin receptor 4 (Homo sapiens) for COc1ccc(Br)cc1CCc1c(F)cccc1C(=O)/N=C(\N)NCCN1CCCC1 was 190 nM

The recorded Ki with Melanocortin receptor 4 (Homo sapiens) for CCC(O)(CC)c1ccccc1N1CCN(C(=O)[C@@H](Cc2ccc(Cl)cc2Cl)NC(=O)C(C)(C)N)CC1 was 38 nM

The recorded Ki with Melanocortin receptor 4 (Homo sapiens) for Cc1ccc(N2CCN(C(=O)[C@H]3[C@@H](c4ccc(Cl)cc4)CCN3C(=O)N(C)C)CC2)c([C@@H](N)C(C)C)c1 (stereo in doubt; form 2) was 6.5 nM

The recorded Ki with Melanocortin receptor 4 (Homo sapiens) for N=C(N)NCCC[C@H]1C[C@@H](OCc2ccc3ccccc3c2)CN1C(=O)[C@@H](Cc1ccccc1)NC(=O)[C@@H]1Cc2ccccc2CN1 was 10 nM

The recorded Ki with Melanocortin receptor 4 (Homo sapiens) for COC(=O)c1ccc(CNCC2(N3CCN(C(=O)[C@H]4CN(C(C)C)C[C@@H]4c4ccc(Cl)cc4)CC3)CCCCC2)cc1 was 32 nM

The recorded Ki with Melanocortin receptor 4 (Homo sapiens) for CC(=O)N1CCCc2cccc(N3CCN(C(=O)[C@@H](Cc4ccc(Cl)cc4)NC(=O)[C@H]4Cc5ccccc5CN4)CC3)c21 was 7700 nM

The recorded Ki with Melanocortin receptor 4 (Homo sapiens) for N=C(N)NCCC[C@H](NC(=O)[C@H](Cc1ccccc1)NC(=O)[C@H](Cc1cnc[nH]1)NC(=O)CCCO)C(=O)N[C@@H](Cc1c[nH]c2ccccc12)C(N)=O was 100 nM

The recorded Ki with Melanocortin receptor 4 (Homo sapiens) for CSCC(=O)N[C@@H](Cc1cnc[nH]1)C(=O)N[C@@H](Cc1ccccc1)C(=O)N[C@@H](CCCNC(=N)N)C(=O)N[C@@H](Cc1c[nH]c2ccccc12)C(N)=O was 210 nM

The recorded Ki with Melanocortin receptor 4 (Homo sapiens) for Cc1ccc(N2CCN(C(=O)[C@@H]3[C@H](c4ccc(Cl)cc4)CCN3C(=O)N(C)C)CC2)c([C@@H](N)C(C)C)c1 was 190 nM

The recorded Ki with Melanocortin receptor 4 (Homo sapiens) for CC(C)C[C@H](N)c1cc(C(F)(F)F)ccc1N1CCN(C(=O)COc2ccc([N+](=O)[O-])cc2)CC1 was 3100 nM
